Test system: CCRF-CEM
TEST DETAILS: NCI tumour cell line growth inhibition, 48 h
Calls of active or inactive are those of the source. Cut-off read from the data, not from the text of the source: active = GI50 up to about 1.1 µM and inactive = higher.
Thanks in advance; please answer with one of these: active, inactive

These recorded examples may help you get a feel for the data.
CCCN(CCC)C(=O)c1c(Cl)c2cccnc2n2c(C)cnc12 | inactive
CS/C(=N/C#N)NCCc1c[nH]c2ccccc12 | inactive
CNC(=O)N1N[C@H](c2ccccc2)[C@@H]1c1ccccc1.OB(O)O | inactive
CSc1s[s+]c(SC)c1[O-] | inactive
N=C1C(O)C2(I)c3ccccc3N3C(=N)C(O)C4c5ccccc5N1C4C32 (configuration not stated) | inactive

Which outcome did this test record for the compound CC(=O)C1C(c2ccc(N(C)C)cc2)c2cc3c(cc2OC1(C)O)OCO3 (configuration not stated) ? inactive

Which result was noted for this compound in the test: `C[C@@H]1C[C@H]2OC(=O)[C@@]3(C)CCC[C@@](C)([C@@H]23)[C@@]1(O)CCc1ccoc1` inactive

Could you check what this test reported for `CN(C)Cc1cc(C(=O)/C=C/c2ccc(/C=C/C(=O)c3cc(CN(C)C)c(O)c(CN(C)C)c3)cc2)cc(CN(C)C)c1O` ? inactive

Tell me the recorded outcome of this test for `CCCc1cn2c(/C=N/NC(=N)N)c(-c3cccc([N+](=O)[O-])c3)nc2s1` . active

In this assay, the call recorded for `O=C(O)CSc1n[nH]c(=O)[nH]c1=O` was what? inactive

For CNC(=O)SCC(N)C(=O)O (configuration not stated) , what call appears in the results of this test? inactive

// param item: `C=C(CN(C)C)C(=O)c1ccccc1` ; yields the recorded call active

Any idea what this test logged for C=C[C@]1(C)CC(=O)C(C(C)C=O)[C@]12C(=O)Oc1cccc(C)c1C2=O (some centres not stated) ? inactive

Recorded values, source ChEMBL document CHEMBL1201862.
